Taken from patent US20240150440A1.

Target: recombinant SARS-CoV-2 RBD with C-terminal AviTag (SARS-CoV-2, UniProt P0DTC2 319-541)
pIC50: −log10 of the molar value.
Documented pIC50 across a set of binders
recorded.metric: pIC50

binder: MBP-5HVZ-R5C-F5-H6 (VHH, not shown: large carriers; small tags and cut ends) VHH: QVQLVESGGGLVQPGGSLRLSCAASGSYFKINSLAWFRQAPGKAREVVAAIHSGDGTNYADSVKGRFTISRDNAKNTVYLQMNSLKPEDTAVYYCAADQAWVRAGTYDYWGQGTQVTVSS
recorded.metric: pIC50
endpoint.value: 8.41
//
binder: MBP-5HVZ-R5D-A1-H6 (VHH, not shown: large carriers; small tags and cut ends) VHH: QVQLVESGGGLVQPGGSLRLSCAASGSISSYNAMHWFRQAPGKQREWVAGLTSSGSDGYVDSVKGRFTISRDNAKNTVYLQMNSLKPEDTAVYYCNAFSYHTYSRYDFWGQGTQVTVSS
recorded.metric: pIC50
endpoint.value: 7.90
//
binder: MBP-5HVZ-R5C-F6-H6 (VHH, not shown: large carriers; small tags and cut ends) VHH: QVQLVESGGGLVQPGGSLRLSCAASGQTNSILAMHWYRQAPGKQREAVATITSGSNSTYADSVKGRFTISRDNAKNTVYLQMNSLKPEDTAVYYCAARNGKLSPKANQRLYWGQGTQVTVSS
recorded.metric: pIC50
endpoint.value: 6.96
//
binder: MBP-5HVZ-R5C-F3-H6 (VHH, not shown: large carriers; small tags and cut ends) VHH: QVQLVESGGGLVQPGGSLRLSCAASGTIPSINYTAWYRQAPGKQRELVASLTSGDNRYYTDSVKGRFTISRDNAKNTVYLQMNSLKPEDTAVYYCNAKTVGSSYRDSYNYWGQGTQVTVSS
recorded.metric: pIC50
endpoint.value: 7.92
//
binder: MBP-5HVZ-R5C-G6-H6 (VHH, not shown: large carriers; small tags and cut ends) VHH: QVQLVESGGGLVQPGGSLRLSCAASGSIESINAIHWFRQAPGKAREEVAAITENDVDYYADSVKGRFTISRDNAKNTVYLQMNSLKPEDTAVYYCASLSSGYQYVGFRYWGQGTQVTVSS
recorded.metric: pIC50
endpoint.value: 8.06
